The reported measurements were obtained from patent US20160297884A1.

Biological target: T1, Cynomolgus monkey BCMA (cynomolgus monkey)
T1 construct: Soluble analyte in SPR; also called cyBCMA; Cyno BCMA
Assay: SPR, IgG immobilised, cyno BCMA analyte
Readout type: koff (s⁻¹)
A number alone suffices; assume s⁻¹.

Study these solved cases before continuing.
>>> endpoint_result("COMBO_Rd4_0.6nM_C20 (antibody, V domains shown, IgG) VH: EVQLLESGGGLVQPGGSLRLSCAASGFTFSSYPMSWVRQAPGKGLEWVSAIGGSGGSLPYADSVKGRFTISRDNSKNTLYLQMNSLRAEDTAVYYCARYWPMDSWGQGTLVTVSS VL: EIVLTQSPGTLSLSPGERATLSCRASQSVSYLYLAWYQQKPGQAPRLLMYDASIRATGIPDRFSGSGSGTDFTLTISRLEPEDFAVYYCQQYMEWPLTFGQGTKVEIK")
0.000284
>>> endpoint_result("C01_Rd4_6nM_C24 (antibody, V domains shown, IgG) VH: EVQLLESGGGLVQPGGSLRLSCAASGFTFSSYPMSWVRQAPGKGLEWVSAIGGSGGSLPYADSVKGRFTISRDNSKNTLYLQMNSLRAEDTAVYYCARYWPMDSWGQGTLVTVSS VL: EIVLTQSPGTLSLSPGERATLSCRASQSVSPEYLAWYQQKPGQAPRLLIYDASSRAPGIPDRFSGSGSGTDFTLTISRLEPEDFAVYYCQQYSVWPLTFGQGTKVEIK")
0.000891

Query string: Which koff value belongs to COMBO_Rd4_6nM_C09 (antibody, V domains shown, IgG) VH: EVQLLESGGGLVQPGGSLRLSCAASGFTFSSYPMSWVRQAPGKGLEWVSAIFASGGSTYYADSVKGRFTISRDNSKNTLYLQMNSLRAEDTAVYYCARYWPMDSWGQGTLVTVSS VL: EIVLTQSPGTLSLSPGERATLSCRASQSVSAQYLAWYQQKPGQAPRLLMYDASIRATGIPDRFSGSGSGTDFTLTISRLEPEDFAVYYCQQYQAWPLTFGQGTKVEIK ?
Result string: 0.000318
